Taken from patent US20220257775A1.

# Kd values compiled below
molecular target: recombinant human E-selectin/CD63E Fc Chimera (Homo sapiens, UniProt P16581); construct: Fc (human IgG Fc fusion partner); purchased R & D systems; test: E-Selectin Activity - Analysis by SPR; type: binding; conditions: Biacore X100, E-selectin captured on anti-human IgG (Fc) chip
Sequence (P16581 with tags, fused parts or gaps limits assumed): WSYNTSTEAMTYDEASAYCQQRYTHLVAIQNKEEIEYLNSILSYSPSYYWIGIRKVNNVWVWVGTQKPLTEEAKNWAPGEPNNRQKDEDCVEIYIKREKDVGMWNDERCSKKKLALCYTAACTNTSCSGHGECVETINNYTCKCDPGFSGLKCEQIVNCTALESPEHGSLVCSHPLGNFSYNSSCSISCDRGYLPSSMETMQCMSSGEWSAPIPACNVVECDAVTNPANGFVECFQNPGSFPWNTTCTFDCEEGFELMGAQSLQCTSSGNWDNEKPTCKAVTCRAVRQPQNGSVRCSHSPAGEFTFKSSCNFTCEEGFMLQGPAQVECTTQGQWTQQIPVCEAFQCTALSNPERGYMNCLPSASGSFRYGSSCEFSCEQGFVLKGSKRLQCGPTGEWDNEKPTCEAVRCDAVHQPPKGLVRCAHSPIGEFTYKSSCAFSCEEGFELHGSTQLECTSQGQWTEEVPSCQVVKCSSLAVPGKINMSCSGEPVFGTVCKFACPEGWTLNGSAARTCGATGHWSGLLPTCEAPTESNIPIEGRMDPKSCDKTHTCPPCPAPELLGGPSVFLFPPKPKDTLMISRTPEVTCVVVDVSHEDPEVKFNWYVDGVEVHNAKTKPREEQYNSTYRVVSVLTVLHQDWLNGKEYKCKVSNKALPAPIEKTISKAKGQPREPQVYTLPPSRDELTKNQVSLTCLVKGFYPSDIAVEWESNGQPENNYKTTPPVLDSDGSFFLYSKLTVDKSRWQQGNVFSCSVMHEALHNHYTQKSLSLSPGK
Just the number in nM, nothing appended.

Here are 2 compounds together with their reported answers.
COMPOUND: CC[C@H]1C[C@@H](C(=O)NCCNC(=O)CCOCCOCCOCCOCCOCCOCCC(=O)NCCNC(=O)[C@@H]2C[C@H](CC)[C@@H](O[C@@H]3O[C@@H](C)[C@@H](O)[C@@H](O)[C@@H]3O)[C@H](O[C@@H]3O[C@H](CO)[C@H](O)[C@H](O[C@@H](CC4CCCCC4)C(=O)O)[C@H]3NC(C)=O)C2)C[C@@H](O[C@@H]2O[C@H](CO)[C@H](O)[C@H](O[C@@H](CC3CCCCC3)C(=O)O)[C@H]2NC(C)=O)[C@@H]1O[C@@H]1O[C@@H](C)[C@@H](O)[C@@H](O)[C@@H]1O [Compound 16]
QUANTITY_UNIT: nM
Kd: 6

COMPOUND: CC[C@H]1C[C@@H](C(=O)NCCNC(=O)CCOCCOCCOCCOCCC(=O)NCCNC(=O)[C@@H]2C[C@H](CC)[C@@H](O[C@@H]3O[C@@H](C)[C@@H](O)[C@@H](O)[C@@H]3O)[C@H](O[C@@H]3O[C@H](CO)[C@H](O)[C@H](O[C@@H](CC4CCCCC4)C(=O)O)[C@H]3NC(C)=O)C2)C[C@@H](O[C@@H]2O[C@H](CO)[C@H](O)[C@H](O[C@@H](CC3CCCCC3)C(=O)O)[C@H]2NC(C)=O)[C@@H]1O[C@@H]1O[C@@H](C)[C@@H](O)[C@@H](O)[C@@H]1O [Compound 17]
QUANTITY_UNIT: nM
Kd: 5.1

**Q:** Please tell me: Kd of CC[C@H]1C[C@@H](C(=O)NCCNC(=O)CCOCCOCCOCCOCCOCCOCCOCCOCCOCCOCCC(=O)NCCNC(=O)[C@@H]2C[C@H](CC)[C@@H](O[C@@H]3O[C@@H](C)[C@@H](O)[C@@H](O)[C@@H]3O)[C@H](O[C@@H]3O[C@H](CO)[C@H](O)[C@H](O[C@@H](CC4CCCCC4)C(=O)O)[C@H]3NC(C)=O)C2)C[C@@H](O[C@@H]2O[C@H](CO)[C@H](O)[C@H](O[C@@H](CC3CCCCC3)C(=O)O)[C@H]2NC(C)=O)[C@@H]1O[C@@H]1O[C@@H](C)[C@@H](O)[C@@H](O)[C@@H]1O [Compound 15] , system recombinant human E-selectin/CD63E Fc Chimera (Homo sapiens, UniProt P16581)?
**A:** 6
